Assay: Pharmacokinetics after intravenous administration of CK in rats (10 mg/kg)
Format: in vivo, Sprague-Dawley rats
Details: female, Sprague-Dawley, rat, plasma, iv, 10 mg/kg, female rats, i.v. 10 mg/kg, 2 h, Mean±SD; read-out: Plasma concentrations of CK
readoutLabel: concentration at 2 h (ng/mL)

INSERT INTO results (compound, measvalue) VALUES
  ('CC(C)=CCCC(C)(OC1OC(CO)C(O)C(O)C1O)C1CCC2(C)C1C(O)CC1C3(C)CCC(O)C(C)(C)C3CCC12C (stereo not shown) [CK]', 102);

====

Experiment: Pharmacokinetics after intravenous administration of CK in rats (10 mg/kg)
Type: in vivo, Sprague-Dawley rats
Conditions: male, Sprague-Dawley, rat, plasma, iv, 10 mg/kg, male rats, i.v. 10 mg/kg, 0.5 min, individual rats 1-3; read-out: Plasma concentrations of CK
readoutLabel: concentration at 0.5 min (µg/mL)

INSERT INTO assay_data (molecule, readoutlabel, measvalue) VALUES
  ('CC(C)=CCCC(C)(OC1OC(CO)C(O)C(O)C1O)C1CCC2(C)C1C(O)CC1C3(C)CCC(O)C(C)(C)C3CCC12C (stereo not shown) [CK]', 'concentration at 0.5 min', 78.1);

====

Assay: Pharmacokinetics after intravenous administration of CK in rats (10 mg/kg)
Type: in vivo, Sprague-Dawley rats
Settings: female, Sprague-Dawley, rat, plasma, iv, 10 mg/kg, female rats, i.v. 10 mg/kg, 1 h, Mean±SD; read-out: Plasma concentrations of CK
readoutLabel: concentration at 1 h (ng/mL)

INSERT INTO measurements (compound, readoutlabel, measvalue) VALUES
  ('CC(C)=CCCC(C)(OC1OC(CO)C(O)C(O)C1O)C1CCC2(C)C1C(O)CC1C3(C)CCC(O)C(C)(C)C3CCC12C (stereo not shown) [CK]', 'concentration at 1 h', 166);

====

Experiment: Pharmacokinetics after oral administration of CK polymorphs in rats (20 mg/kg)
Type: in vivo, Sprague-Dawley rats
Settings: female, Sprague-Dawley, rat, plasma, po, 20 mg/kg, female rats, p.o. 20 mg/kg, mean ± SD (n = 3); read-out: t1/2z (converted)
readoutLabel: half-life (h)

INSERT INTO results (molecule, readoutlabel, measvalue) VALUES
  ('CC(C)=CCCC(C)(OC1OC(CO)C(O)C(O)C1O)C1CCC2(C)C1C(O)CC1C3(C)CCC(O)C(C)(C)C3CCC12C (stereo not shown) [Form I]', 'half-life', 3.05);

====

Test: Pharmacokinetics after intravenous administration of CK in rats (10 mg/kg)
Assay type: in vivo, Sprague-Dawley rats
Details: female, Sprague-Dawley, rat, plasma, iv, 10 mg/kg, female rats, i.v. 10 mg/kg, 9 h, Mean±SD; read-out: Plasma concentrations of CK
readoutLabel: concentration at 9 h (ng/mL)

INSERT INTO measurements (compound, measvalue) VALUES
  ('CC(C)=CCCC(C)(OC1OC(CO)C(O)C(O)C1O)C1CCC2(C)C1C(O)CC1C3(C)CCC(O)C(C)(C)C3CCC12C (stereo not shown)', 25.7);

====

Experiment: Pharmacokinetics after intravenous administration of CK in rats (10 mg/kg)
Assay type: in vivo, Sprague-Dawley rats
Conditions: male, Sprague-Dawley, rat, plasma, iv, 10 mg/kg, male rats, i.v. 10 mg/kg, individual rats 1-3; read-out: AUC(0-t)
readoutLabel: AUC(0-t) (ng·h/mL)

INSERT INTO assay_data (compound, readoutlabel, measvalue) VALUES
  ('CC(C)=CCCC(C)(OC1OC(CO)C(O)C(O)C1O)C1CCC2(C)C1C(O)CC1C3(C)CCC(O)C(C)(C)C3CCC12C (stereo not shown)', 'AUC(0-t)', 4260);
